Listing of entries alongside the reported Wicking Time to traverse 5.4 cm strip.
# experiment: Capillary wicking time of laminated membrane strip (hydrophilicity)
# Type: physicochemical
# experimental_setup: 14 days storage at 45° C; surfactant-treated (example 4 Part E), Poly SC9 laminate

# compound, units_symbol, Wicking Time to traverse 5.4 cm strip
records = [
    ("CCCCCS(=O)(=O)O", "min", 5.4),
    ("CCCCCCCCCCCCS(=O)(=O)O", "min", 6.0),
    ("CCCCCCCCCCS(=O)(=O)O", "min", 6.0),
    ("CCCCCCCS(=O)(=O)O", "min", 5.2),
    ("CCCCCCCCCCCCOS(=O)(=O)[O-].[Na+] [sodium dodecyl sulfate]", "min", 7.0),
    ("CCCCCCCCS(=O)(=O)O", "min", 5.4),
]
